B1: glmS ribozyme (parent)
chain: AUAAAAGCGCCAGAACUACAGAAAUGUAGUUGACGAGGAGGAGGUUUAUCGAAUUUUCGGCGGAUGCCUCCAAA

variants of: B1; assay: self-cleavage kobs at 2500 uM GlcN6P; higher = faster cleavage; RNA array; conditions: with glucosamine-6-phosphate
Fewer inactive variants are shown than the library holds.
Can you tell me self-cleavage kobs at 2500 uM GlcN6P for the items I'm about to list?

Query: Can you share its self-cleavage kobs at 2500 uM GlcN6P? I mean this variant: C11U U30C A52G A64U
Response: < 1e-05 s⁻¹

Query: Repeat for the following variant: A6C A48U
Response: < 1e-05 s⁻¹

Query: Do the same for A12G G32C A36U please
Response: < 1e-05 s⁻¹

Query: Again, but for A15U G44A A48C U56A C70A
Response: < 1e-05 s⁻¹

Query: Next variant: G60U C67A U69A
Response: < 1e-05 s⁻¹

Query: Same again, this time with G13U A36U
Response: < 1e-05 s⁻¹

Query: For A6G G13U G40A C71U then?
Response: < 1e-05 s⁻¹

Query: Try this variant too: G40A U54G U69A
Response: < 1e-05 s⁻¹

Query: Let us now turn to A6U A52C
Response: < 1e-05 s⁻¹

Query: Note, next up: A52C G59C A64U
Response: < 1e-05 s⁻¹

Query: Entry to check: A33G U47A A52C C70A
Response: < 1e-05 s⁻¹

Query: Same for G32A U45C A52G
Response: < 1e-05 s⁻¹

Query: Query A14G G40U C61G next
Response: < 1e-05 s⁻¹

Query: Can you check G40A G41C A42C U49C next?
Response: < 1e-05 s⁻¹

Query: Same read-out for C8U C50A ?
Response: < 1e-05 s⁻¹

Query: Same question, C11G G13A G44A this time
Response: < 1e-05 s⁻¹

Query: Next entry: A6C U31C G59C G62U
Response: < 1e-05 s⁻¹

Query: And then G7U C19A , what is it?
Response: < 1e-05 s⁻¹

Query: And the next one, A39U A42U U55G G66U ?
Response: 0.000166 s⁻¹

Query: Here is the next variant: A12U G32U G41A U56A A64U U65A
Response: < 1e-05 s⁻¹

Query: A15C G37U A39G , same question.
Response: < 1e-05 s⁻¹

Query: Now consider C11U U69A and answer again.
Response: 0.000157 s⁻¹

Query: How about A14U U30G U31C A53U ?
Response: 0.00047 s⁻¹

Query: Also A53U C58A , if possible.
Response: 0.000143 s⁻¹

Query: Note, next up: C11U U30A
Response: 0.0011 s⁻¹

Query: Entry U46A C70A please
Response: 0.000146 s⁻¹

Query: Now this one: C67G
Response: 0.00108 s⁻¹

Each recorded value in this set is attributed to the supplement of paper PMC7125110.
